molecules and their reported MIC
System: Staphylococcus aureus
test_summary: Antimicrobial activity against Staphylococcus aureus ATCC 13709 after 20 to 24 hrs
Format: functional
Your answer is read as µg/mL, so omit the unit and give the number.

smiles_record: NC[C@@H]1O[C@H](O[C@H]2[C@@H](OCCNCCN3C(=O)c4cccc5cccc(c45)C3=O)[C@H](O[C@@H]3[C@@H](O)[C@H](N)C[C@H](N)[C@H]3O[C@H]3O[C@H](CO)[C@@H](O)[C@H](O)[C@H]3N)O[C@@H]2CO)[C@H](N)[C@@H](O)[C@@H]1O
assay_target: Staphylococcus aureus
value_units: µg/mL
result: 10

Kindly review the next molecule as well.
In: Look at this molecule and give its reported MIC. NC[C@@H]1O[C@H](O[C@H]2[C@@H](OCCc3ccccc3)[C@H](O[C@@H]3[C@@H](O)[C@H](N)C[C@H](N)[C@H]3O[C@H]3O[C@H](CO)[C@@H](O)[C@H](O)[C@H]3N)O[C@@H]2CO)[C@H](N)[C@@H](O)[C@@H]1O
Out: 6

###

System: Staphylococcus aureus
test_summary: Antimicrobial activity against Staphylococcus aureus ATCC 13709 after 20 to 24 hrs
Assay type: functional
assay_endpoint: MIC (µg/mL)
Your answer is read as µg/mL, so omit the unit and give the number.

In: Item: NC[C@@H]1O[C@H](O[C@H]2[C@@H](OCCNCCc3ccccc3)[C@H](O[C@@H]3[C@@H](O)[C@H](N)C[C@H](N)[C@H]3O[C@H]3O[C@H](CO)[C@@H](O)[C@H](O)[C@H]3N)O[C@@H]2CO)[C@H](N)[C@@H](O)[C@@H]1O Test system: Staphylococcus aureus Read-out: MIC Value: ?
Out: 0.3

###

Test system: Staphylococcus aureus
test_summary: Antimicrobial activity against Staphylococcus aureus ATCC 13709 after 20 to 24 hrs
Assay type: functional
assay_endpoint: MIC (mg/L)
Your answer is read as mg/L, so omit the unit and give the number.

See these solved cases before continuing.
smiles_record: NC[C@@H]1O[C@H](O[C@H]2[C@@H](OCCNc3cnc4ccccc4c3)[C@H](O[C@@H]3[C@@H](O)[C@H](N)C[C@H](N)[C@H]3O[C@H]3O[C@H](CO)[C@@H](O)[C@H](O)[C@H]3N)O[C@@H]2CO)[C@H](N)[C@@H](O)[C@@H]1O
assay_endpoint: MIC
result: 1
--
smiles_record: NCCNCCO[C@H]1[C@H](O[C@@H]2[C@@H](O)[C@H](N)C[C@H](N)[C@H]2O[C@H]2O[C@H](CO)[C@@H](O)[C@H](O)[C@H]2N)O[C@H](CO)[C@H]1O[C@H]1O[C@@H](CN)[C@@H](O)[C@H](O)[C@H]1N
assay_endpoint: MIC
result: 2
--
smiles_record: NC[C@@H]1O[C@H](O[C@H]2[C@@H](OCCNCCc3cc(C(F)(F)F)cc(C(F)(F)F)c3)[C@H](O[C@@H]3[C@@H](O)[C@H](N)C[C@H](N)[C@H]3O[C@H]3O[C@H](CO)[C@@H](O)[C@H](O)[C@H]3N)O[C@@H]2CO)[C@H](N)[C@@H](O)[C@@H]1O
assay_endpoint: MIC
result: 2.5

Kindly review the next compound as well.
In: Item: NC[C@@H]1O[C@H](O[C@H]2[C@@H](OCCO)[C@H](O[C@@H]3[C@@H](O)[C@H](N)C[C@H](N)[C@H]3O[C@H]3O[C@H](CO)[C@@H](O)[C@H](O)[C@H]3N)O[C@@H]2CO)[C@H](N)[C@@H](O)[C@@H]1O Test system: Staphylococcus aureus Read-out: MIC Value: ?
Out: 12

Origin of measurements: ChEMBL document CHEMBL1139884
